# Target of assay: 26S proteasome CT-L activity in lysate of HT29 (constitutive) vs Sultan/Thp1 (immunoproteasome) cells (Homo sapiens, UniProt P28062+P28074)
# Construct: using 26S proteasome in the context of a cell lysate; endogenous in cells; host or cells: HT29 lysate (constitutive); Sultan or THP1 lysate (immunoproteasome)
# Sequence (P28074 60-263): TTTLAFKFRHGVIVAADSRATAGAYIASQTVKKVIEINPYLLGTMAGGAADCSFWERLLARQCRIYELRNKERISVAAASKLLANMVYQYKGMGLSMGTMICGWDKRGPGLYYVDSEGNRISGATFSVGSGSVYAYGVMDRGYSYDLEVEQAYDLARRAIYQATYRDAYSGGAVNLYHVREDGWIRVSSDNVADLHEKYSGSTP
# Sequence (P28062 73-276): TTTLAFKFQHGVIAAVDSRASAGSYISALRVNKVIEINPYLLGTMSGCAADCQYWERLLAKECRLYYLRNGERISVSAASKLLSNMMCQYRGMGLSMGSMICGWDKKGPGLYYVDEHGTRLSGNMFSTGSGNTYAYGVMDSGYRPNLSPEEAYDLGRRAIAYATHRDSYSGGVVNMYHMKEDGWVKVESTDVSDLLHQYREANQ
# Assay method text: CT-L EC50 with 26S proteasome in cell lysate (Lysate ratio)
# Assay type: biochemical
# Condition notes: HT29 lysate to Sultan/Thp1 lysate, >1 = prefers immunoproteasome
Measured Lysate ratio (HT29:Sultan/Thp1) values are reported for all entries that follow.

A selection of reference data follows.
>>> result("C[C@@H](NC(=O)OCc1ccccc1)C(=O)N[C@@H](Cc1c[nH]c2ccccc12)C(=O)N[C@@H](Cc1ccccc1)C(=O)C1(C)CO1 (some centres unmarked)")
">5.0"
>>> result("CC(NC(=O)OCc1ccccc1)C(=O)N[C@@H](Cc1ccccc1)C(=O)N[C@@H](Cc1ccc(O)cc1)C(=O)C1(C)CO1 (some centres unmarked)")
">3.0"
>>> result("CC[C@H](C)[C@@H](NC(=O)OCc1ccccc1)C(=O)N[C@@H](Cc1ccccc1)C(=O)N[C@@H](Cc1ccccc1)C(=O)C1(C)CO1 (some centres unmarked)")
">3.0"
>>> result("CC1(C(=O)[C@H](Cc2ccccc2)NC(=O)[C@H](Cc2c[nH]c3ccccc23)NC(=O)C(CC(=O)O)NC(=O)OCc2ccccc2)CO1 (some centres unmarked)")
">3.0"
>>> result("CC1(C(=O)[C@H](Cc2ccccc2)NC(=O)[C@H](Cc2ccccc2)NC(=O)[C@H](CCC(N)=O)NC(=O)OCc2ccccc2)CO1 (some centres unmarked)")
">3.0"
>>> result("C[C@H](NC(=O)OCc1ccccc1)C(=O)N[C@@H](Cc1c[nH]c2ccccc12)C(=O)N[C@@H](Cc1ccccc1)C(=O)C1(C)CO1 (some centres unmarked)")
">2.0"
>>> result("CC(NC(=O)OCc1ccccc1)C(=O)N[C@@H](Cc1ccccc1)C(=O)N[C@@H](CCc1ccccc1)C(=O)C1(C)CO1 (some centres unmarked)")
">3.0"
>>> result("CC(C)C(NC(=O)OCc1ccccc1)C(=O)N[C@@H](Cc1ccccc1)C(=O)N[C@@H](Cc1ccccc1)C(=O)C1(C)CO1 (some centres unmarked)")
">2.0"

Dear colleague, I am looking for the recorded Lysate ratio (HT29:Sultan/Thp1) of the following molecule: CC[C@@H](NC(=O)OCc1ccccc1)C(=O)N[C@@H](Cc1c[nH]c2ccccc12)C(=O)N[C@@H](Cc1ccccc1)C(=O)C1(C)CO1 (some centres unmarked) [drawing 84]
>3.0

Another molecule to check: CC(NC(=O)OCc1ccccc1)C(=O)N[C@@H](Cc1cccs1)C(=O)N[C@@H](Cc1ccccc1)C(=O)C1(C)CO1 (some centres unmarked)
>2.0
